test.protocol: Solubility of abrasive-grain material at normal temperature
Type: physicochemical
recorded.conditions: abrasive-grain material, normal temperature (25° C.)

compound: O=C(O)CC(=O)O
Solubility [%]: 32.2
--
compound: O=S(=O)([O-])[O-].O=S(=O)([O-])[O-].O=S(=O)([O-])[O-].[Ce+3].[Ce+3] [Example 4, Ce2(SO4)3]
Solubility [%]: 7.59
--
compound: OC[C@H]1O[C@@](CO)(O[C@H]2O[C@H](CO)[C@@H](O)[C@H](O)[C@H]2O)[C@@H](O)[C@@H]1O
Solubility [%]: 67.0
--
compound: [Cl][Cu][Cl]
Solubility [%]: 42.8
